- tested_on: AgBbc1
- run_description: SPOT peptide array binding signal intensity (averaged, normalized) (arbitrary units (background-subtracted, floor 0; scale differs between SH3 domains)); higher = stronger binding of the SH3 domain to the peptide
Rule: SPOT peptide array binding signal intensity under 100 gives NO, otherwise YES.

binder: VPPPMQPPPIESSNL
qualitative_label: NO

binder: PAPPPPPRASRPTPN
qualitative_label: YES

binder: NHSRSLFSLPGNQQS
qualitative_label: NO

binder: RPKRRAPPPVPKKPS
qualitative_label: YES

binder: RRGPAPPPPPRASRP
qualitative_label: YES

binder: LKHGWKPLRPIKLIS
qualitative_label: NO

Request: Quick check: does "MTKTPETSPPKRPMG" have SPOT peptide array binding signal intensity greater than or equal to 100?
Response: NO
